measurement.target: complex of human CDK4 and cyclin D3 (Homo sapiens)
Construct: made in house; host or cells: insect cells, co-infected with baculovirus
Sequence (P11802 whole entry): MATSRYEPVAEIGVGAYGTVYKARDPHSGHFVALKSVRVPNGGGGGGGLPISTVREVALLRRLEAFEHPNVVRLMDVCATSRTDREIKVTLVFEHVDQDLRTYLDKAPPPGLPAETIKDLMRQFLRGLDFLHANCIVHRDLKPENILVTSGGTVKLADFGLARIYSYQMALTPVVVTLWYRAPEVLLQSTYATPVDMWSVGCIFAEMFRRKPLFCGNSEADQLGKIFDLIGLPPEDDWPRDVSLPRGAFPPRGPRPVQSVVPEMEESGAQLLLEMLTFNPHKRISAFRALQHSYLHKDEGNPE
Sequence (P30281 whole entry partner): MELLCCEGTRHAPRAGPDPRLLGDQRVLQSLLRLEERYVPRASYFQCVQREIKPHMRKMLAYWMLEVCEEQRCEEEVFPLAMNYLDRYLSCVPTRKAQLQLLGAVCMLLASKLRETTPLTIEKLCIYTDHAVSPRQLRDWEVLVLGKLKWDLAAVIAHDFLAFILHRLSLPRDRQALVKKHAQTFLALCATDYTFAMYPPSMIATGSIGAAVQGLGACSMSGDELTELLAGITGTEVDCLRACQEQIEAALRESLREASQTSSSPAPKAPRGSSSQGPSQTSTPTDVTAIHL
assay.name: Inhibition of CDK4/cyclin D retinoblastoma kinase activity (D-type cyclin is D3)
Format: biochemical
assay.context: superscript a: D-type cyclin is D3; apparent Ki; read-out: Ki CDK 4/D
pKi: −log10 of the molar value.
measure: pKi

CN1CCN(S(=O)(=O)c2ccc(Nc3nc(N)c(C(=O)c4c(F)cccc4F)s3)cc2)CC1 [C(116)] : 6.92

(I) Nc1nc(Nc2ccccc2)sc1C(=O)c1ccccn1 [A(4)]
(II) CN1CCN(c2ccc(Nc3nc(N)c(C(=O)c4c(Cl)cc(Br)c(N)c4Cl)s3)cc2)CC1 [C(96)]
# returns the entry with the larger pKi; inputs I and II API: response body contains the label of the selected item.
II

(a) CCOC(=O)c1ccc(Nc2nc(N)c(C(=O)c3ccccc3[N+](=O)[O-])s2)cc1 [A(5)]
(b) Nc1nc(Nc2ccc3nc[nH]c3c2)sc1C(=O)c1c(Cl)cccc1Cl [C(52)]
# returns the entry with the larger pKi; inputs a and b API: response body contains the label of the selected item.
b

(1) Nc1nc(Nc2ccc(C(=O)O)cc2)sc1C(=O)c1ccccc1[N+](=O)[O-] [E(1)]
(2) Nc1nc(Nc2ccc3nc[nH]c3c2)sc1C(=O)c1ccccc1[N+](=O)[O-] [A(9)]
(3) Nc1nc(NC2CCCCC2)sc1C(=O)c1ccc(F)cc1 [I(8)]
(4) NC(=O)c1ccc(Nc2nc(N)c(C(=O)c3c(F)cccc3C(F)(F)F)s2)cc1 [C(113)]
Give the ascending ranking of the items by reported pKi. Form entry: ranked labels (order as requested).
3, 1, 2, 4
